# test target: T1, Duffy Antigen Receptor for Chemokines (DARC) (human, UniProt Q16570 1-336)
# T1 construct: whole, on cells
# T1 sequence (looked up): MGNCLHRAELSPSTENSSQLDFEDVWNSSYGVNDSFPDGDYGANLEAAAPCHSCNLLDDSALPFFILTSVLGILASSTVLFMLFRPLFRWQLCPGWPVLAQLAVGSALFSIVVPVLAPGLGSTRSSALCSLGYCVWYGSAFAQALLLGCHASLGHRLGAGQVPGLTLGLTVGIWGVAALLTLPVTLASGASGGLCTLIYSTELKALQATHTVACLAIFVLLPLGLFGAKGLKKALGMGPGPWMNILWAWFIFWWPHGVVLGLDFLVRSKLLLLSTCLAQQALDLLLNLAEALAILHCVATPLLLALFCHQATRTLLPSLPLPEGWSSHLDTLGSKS
# test details: Duffy binding
measurement name: Kd (µM)
Numbers only here, please. The scale is µM.

In one line, give reported Kd of the entry SYRRITSSKCPKEAV (synthetic linear L-form peptide; also called Pep2[MCP1]; Pep2(1-15)[MCP1]) [peptide 2(1-15)[MCP-1]] . 100

This collection of values is drawn from patent US7067117.
